target: STK36 (human); experiment: KINOMEscan competition binding; details: compound 10.0 µM
metricName: kinase still bound, per cent of control (%)

[[record]]
molecule = "Nc1ccc(-c2ccc3ncc4ccc(=O)n(-c5cccc(C(F)(F)F)c5)c4c3c2)cn1"
recordedmeasurement = 99

[[record]]
molecule = "N#Cc1c(NC(=O)c2cccc3ccccc23)sc2c1CCCC2"
recordedmeasurement = 66

[[record]]
molecule = "Cc1ccc(NC(=O)c2cccc(C(C)(C)C#N)c2)cc1Nc1ccc2ncn(C)c(=O)c2c1"
recordedmeasurement = 88

[[record]]
molecule = "OCCCNc1cc(-c2ccnc(Nc3cccc(Cl)c3)n2)ccn1"
recordedmeasurement = 100

[[record]]
molecule = "O=C(NC1CC1)c1cccc(-c2ccc3c(NC(=O)C4CC4)n[nH]c3c2)c1"
recordedmeasurement = 88

[[record]]
molecule = "O=C(O)c1ccc(Nc2ncc3c(n2)-c2ccc(Cl)cc2C(c2c(F)cccc2F)=NC3)cc1"
recordedmeasurement = 100

[[record]]
molecule = "COc1cc(C(=O)NC2CCN(C)CC2)ccc1Nc1ncc2c(n1)N(C1CCCC1)C(C)CC(=O)N2C (centres undefined)"
recordedmeasurement = 100

[[record]]
molecule = "CCCS(=O)(=O)Nc1ccc(F)c(C(=O)c2c[nH]c3ncc(-c4ccc(Cl)cc4)cc23)c1F"
recordedmeasurement = 4.6

[[record]]
molecule = "CCN1CCN(Cc2ccc(Nc3ncc4c(n3)N(C)c3ccccc3C(=O)N4C)cc2C(F)(F)F)CC1"
recordedmeasurement = 82

[[record]]
molecule = "C=CC(=O)Nc1cc(NC(=O)c2ccc(C)c(NC(=O)c3ccno3)c2)cc(C(F)(F)F)c1"
recordedmeasurement = 100

[[record]]
molecule = "O=C(NOC[C@H](O)CO)c1ccc(F)c(F)c1Nc1ccc(I)cc1F"
recordedmeasurement = 74

[[record]]
molecule = "CC[C@@H]1C(=O)N(C)c2cnc(Nc3ccc(C(=O)NC4CCN(C)CC4)cc3OC)nc2N1C1CCCC1"
recordedmeasurement = 100

[[record]]
molecule = "CN(C)C/C=C/C(=O)Nc1cccc(Nc2ncc3c(n2)N(C)c2ccccc2C(=O)N3C)c1"
recordedmeasurement = 100

[[record]]
molecule = "COc1cc(N2CCN(C)CC2)ccc1Nc1nc(N)c(C(=O)c2c(Cl)cccc2Cl)s1"
recordedmeasurement = 100

[[record]]
molecule = "C=CC(=O)Nc1cccc(Oc2nc(Nc3ccc(N4CCN(C)CC4)cc3OC)ncc2Cl)c1"
recordedmeasurement = 100

[[record]]
molecule = "CCOc1cc2ncc(C#N)c(Nc3ccc(OCc4ccccn4)c(Cl)c3)c2cc1NC(=O)/C=C/CN(C)C"
recordedmeasurement = 69

[[record]]
molecule = "O=C1Nc2ccc(I)cc2/C1=C/c1cc(Br)c(O)c(Br)c1"
recordedmeasurement = 14

[[record]]
molecule = "Cn1c(=O)n(-c2ccc(C(C)(C)C#N)cc2)c2c3cc(-c4cnc5ccccc5c4)ccc3ncc21"
recordedmeasurement = 100

[[record]]
molecule = "COc1cc(C(=O)NC2CCN(C)CC2)ccc1Nc1ncc2c(n1)N(C1CCCC1)CCC(=O)N2C(C)C"
recordedmeasurement = 100

